Each item that follows carries a reported viability at 216 h, 3 µM.
Assay: Cytotoxicity in HBV persistently infected human HEP G2 cells, neutral red dye uptake (Table 5)
Assay type: cell-based
Settings: human, hep-g2 cells, % of Control Neutral Red Dye Uptake
Value expressed in %; do not type the unit.

Consider the worked cases shown below.
[
  {
    "MOLECULE": "CCCCCCCCCCCCCCCCSCCOP(=O)([O-])OCC[N+](C)(C)C",
    "viability at 216 h, 3 µM (%)": 100
  },
  {
    "MOLECULE": "CCCCCCCCCCCCCCCCSCC(C[N+](C)(C)CCO)OC (racemic)",
    "viability at 216 h, 3 µM (%)": 98
  }
]

Need viability at 216 h, 3 µM of CCCCCCCCCCCCCCCCCC(=O)NCC(COP(=O)([O-])OCC[N+](C)(C)C)OCC (racemic) , thanks.
98

Record: CCCCCCCCCCCCCCCC(=O)NCC(COP(=O)([O-])OCC[N+](C)(C)C)OCC (racemic)
99

* * *

Test: Cytotoxicity of alkyl lipids, neutral red dye uptake (Table 1)
Assay type: cell-based
Conditions: human, hep-g2 cells
Collected viability at 216 h, 30 µM values appear next to each entry.
Report as a plain number; the unit % is understood.

Worked examples follow.
[
  {
    "COMPOUND": "CCCCCCCCCCCCCCCCCC(=O)NCC(COP(=O)([O-])OCC[N+](C)(C)C)OCC (racemic) [CP-51]",
    "UNIT DESCRIPTOR": "%",
    "VALUE MEASURED": 96
  },
  {
    "COMPOUND": "CCCCCCCCCCCCCCCCCC(=O)NCC(COP(=O)([O-])OCC[N+](C)(C)C)OC (centres unmarked) [CP-50]",
    "UNIT DESCRIPTOR": "%",
    "VALUE MEASURED": 100
  },
  {
    "COMPOUND": "CCCCCCCCCCCCCCCC(=O)NCC(COP(=O)([O-])OCC[N+](C)(C)C)OC (centres unmarked) [CP-48]",
    "UNIT DESCRIPTOR": "%",
    "VALUE MEASURED": 61
  },
  {
    "COMPOUND": "Nc1ccn([C@H]2CC[C@@H](CO)O2)c(=O)n1 [2',3'-dideoxycytidine, 2', 3'-dideoxycytidine, reference compound]",
    "UNIT DESCRIPTOR": "%",
    "VALUE MEASURED": 99
  }
]

Now for the compound whose viability at 216 h, 30 µM we want.
Quick check: viability at 216 h, 30 µM of CCCCCCCCCCCCCCCCSCC(C[N+](C)(C)CCO)OC (racemic) [CP-7] ?
67

* * *

Assay: Cytotoxicity in HBV persistently infected human HEP G2 cells, neutral red dye uptake (Table 5)
Type: cell-based
Conditions: human, hep-g2 cells, Trial 2; 1000 μM; read-out: % of Control Neutral Red Dye Uptake
MEASURED ENDPOINT: viability at 216 h, 1000 µM (%)
Your answer should be a plain number; it is taken to be in %.

May I ask what viability at 216 h, 1000 µM has been recorded for Nc1ccn([C@H]2CC[C@@H](CO)O2)c(=O)n1 [2',3'-dideoxycytidine, 2', 3'-dideoxycytidine, reference compound] ?
12

* * *

Reported values of viability at 216 h, 10 µM for individual entries
Experiment: Cytotoxicity in HBV persistently infected human HEP G2 cells, neutral red dye uptake (Table 5)
Type: cell-based
Details: human, hep-g2 cells, % of Control Neutral Red Dye Uptake
I only need the number, in %, no unit after it.

The examples below pair each entry with its known result.
[
  {
    "MOLECULE": "CCCCCCCCCCCCCCCC(=O)NCC(COP(=O)([O-])OCC[N+](C)(C)C)OCC (racemic) [CP-49]",
    "viability at 216 h, 10 µM, %": 97
  },
  {
    "MOLECULE": "CCCCCCCCCCCCCCCCCC(=O)NCC(COP(=O)([O-])OCC[N+](C)(C)C)OCC (racemic) [CP-51]",
    "viability at 216 h, 10 µM, %": 102
  },
  {
    "MOLECULE": "CCCCCCCCCCCCCCCCSCC(C[N+](C)(C)CCO)OC (racemic) [CP-7]",
    "viability at 216 h, 10 µM, %": 102
  }
]

Fill blank: measured viability at 216 h, 10 µM of the molecule CCCCCCCCCCCCCCCCSCCOP(=O)([O-])OCC[N+](C)(C)C [CP-9, 2-hexadecylthio-1-ethylphosphocholine] is ____.
99

* * *

Experiment: Cytotoxicity in HBV persistently infected human HEP G2 cells, neutral red dye uptake (Table 5)
Type: cell-based
Conditions: human, hep-g2 cells, Trial 1; 10 μM; read-out: % of Control Neutral Red Dye Uptake
MEASURED ENDPOINT: viability at 216 h, 10 µM (%)
Reply numerically in %, unit not repeated.

Tell me the measured viability at 216 h, 10 µM of Nc1ccn([C@H]2CC[C@@H](CO)O2)c(=O)n1 [2',3'-dideoxycytidine, 2', 3'-dideoxycytidine, reference compound] , please.
101

* * *

Assay: Cytotoxicity of alkyl lipids, neutral red dye uptake (Table 1)
Format: cell-based
Conditions: human, hep-g2 cells; 10 μM; nine days; read-out: % of Control Neutral Red Dye Uptake
MEASURED ENDPOINT: viability at 216 h, 10 µM
Remember to follow the number with its unit.

So what's the measured viability at 216 h, 10 µM for this one? CCCCCCCCCCCCCCCC(=O)NCC(COP(=O)([O-])OCC[N+](C)(C)C)OCC (racemic) [CP-49]
99%

* * *

Assay: Cytotoxicity of alkyl lipids, neutral red dye uptake (Table 1)
Type: cell-based
Conditions: human, hep-g2 cells; 100 μM; nine days; read-out: % of Control Neutral Red Dye Uptake
MEASURED ENDPOINT: viability at 216 h, 100 µM (%)
Entry rule: numbers only, all in %.

Dear colleague, I am looking for the recorded viability at 216 h, 100 µM of the following compound: CCCCCCCCCCCCCCCC(=O)NCC(COP(=O)([O-])OCC[N+](C)(C)C)OCC (racemic)
29

* * *

Below: a set of entries, each annotated with reported viability at 216 h, 10 µM.
Assay: Cytotoxicity of alkyl lipids, neutral red dye uptake (Table 1)
Assay type: cell-based
Conditions: human, hep-g2 cells
Write the answer as a number in %, unit excluded.

[
  {
    "COMPOUND": "CCCCCCCCCCCCCCCCCC(=O)NCC(COP(=O)([O-])OCC[N+](C)(C)C)OCC (racemic)",
    "viability at 216 h, 10 µM / %": 100
  },
  {
    "COMPOUND": "CCCCCCCCCCCCCCCCSCC(C[N+](C)(C)CCO)OC (racemic)",
    "viability at 216 h, 10 µM / %": 102
  },
  {
    "COMPOUND": "CCCCCCCCCCCCCCCCCC(=O)NCC(COP(=O)([O-])OCC[N+](C)(C)C)OC (centres unmarked)",
    "viability at 216 h, 10 µM / %": 99
  }
]

Dear colleague, I am looking for the recorded viability at 216 h, 10 µM of the following compound: CCCCCCCCCCCCCCCC(=O)NCC(COP(=O)([O-])OCC[N+](C)(C)C)OC (centres unmarked)
97

Another compound to look at: Nc1ccn([C@H]2CC[C@@H](CO)O2)c(=O)n1 [2',3'-dideoxycytidine, 2', 3'-dideoxycytidine, reference compound]
102

* * *

Assay: Cytotoxicity of alkyl lipids, neutral red dye uptake (Table 1)
Format: cell-based
Settings: human, hep-g2 cells; 30 μM; nine days; read-out: % of Control Neutral Red Dye Uptake
MEASURED ENDPOINT: viability at 216 h, 30 µM (%)
Please respond with the number in % and leave the unit unwritten.

For the compound CCCCCCCCCCCCCCCC(=O)NCC(COP(=O)([O-])OCC[N+](C)(C)C)OCC (racemic) [CP-49] , what viability at 216 h, 30 µM is on record?
60
